These entries and their values trace back to patent US20240247080A1.

# Tested on: hGLP1R (Homo sapiens)
# Construct: expressed in transfected cells; host or cells: HEK-293 cells carrying a CRE-luciferase reporter gene
# Sequence (P43220 24-463): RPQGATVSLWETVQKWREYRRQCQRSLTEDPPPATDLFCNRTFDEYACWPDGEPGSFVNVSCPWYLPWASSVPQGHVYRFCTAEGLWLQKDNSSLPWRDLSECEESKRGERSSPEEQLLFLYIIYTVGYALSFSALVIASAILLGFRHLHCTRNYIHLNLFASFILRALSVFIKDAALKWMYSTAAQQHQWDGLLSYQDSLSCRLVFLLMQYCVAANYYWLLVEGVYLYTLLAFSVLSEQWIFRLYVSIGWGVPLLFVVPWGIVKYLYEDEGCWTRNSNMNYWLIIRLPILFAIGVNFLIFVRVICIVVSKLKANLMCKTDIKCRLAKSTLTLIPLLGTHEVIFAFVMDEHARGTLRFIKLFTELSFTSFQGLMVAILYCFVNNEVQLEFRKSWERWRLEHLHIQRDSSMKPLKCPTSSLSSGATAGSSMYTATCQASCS
# Method description: hGLP1R CreLuc reporter gene assay in 0.5% and 100% plasma
# Type: cell-based
# Assay setup: hGLP1R 0.5% hP, CreLuc reporter gene assay, 0.5% human plasma
Starred links: 1 amine or outer side, 2 acyl side, 3 side chain; linkers in the order of their positions; H or OH if unused. Non-standard residues stand in square brackets, D forms with d. Groups on a side chain read outwards from the residue. *: point of attachment. C20 diacid = O=C(O)CCCCCCCCCCCCCCCCCCC(=O)*; γGlu = O=C(O)[C@H](CCC(=O)[*:2])N[*:1]; εLys = N[C@@H](CCCCN[*:1])C(=O)[*:2]; Aib = CC(C)(N)C(=O)O
Property label: pEC50
Give only the number. pEC50 is defined as minus log10 of concentration in molar units.

Form field: reported pEC50 of H-Y[Aib]EGTFTSDLSI[Aib]LEKQAQ[Aib]AFVEWLIK([εLys-γGlu-γGlu-γGlu-γGlu-γGlu-γGlu-C20 diacid])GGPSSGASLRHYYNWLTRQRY-NH2 [Compound 172]
10.15
